Source of measurements: the METLIN SMRT retention time set (Domingo-Almenara et al. 2019)

Experiment: gradient 5% acetonitrile 3 min, to 50% in 2 min, to 85% in 15 min, held 3 min, 100 µL/min
Conditions: column: Zorbax Extend-C18 2.1 x 50 mm; eluents: water / acetonitrile, 0.1% formic acid
// reported RP-LC retention time for each item listed
readout: RP-LC retention time (s)

compound="Cc1ccc(-c2ccc(N3CCCC(C(=O)NCCC4=CCCCC4)C3)nn2)cc1 (configuration not stated)" readout="RP-LC retention time" unitsymbol=s valuemeasured=855
compound=COc1cccc(-c2nnc(-c3ccc(-n4ccnc4)nc3)o2)c1 readout="RP-LC retention time" unitsymbol=s valuemeasured=654
compound="COc1ccc(-c2cc(N3CCC(NC(=O)c4ccc(Br)cc4)C3)n[nH]2)cc1 (configuration not stated)" readout="RP-LC retention time" unitsymbol=s valuemeasured=966
compound=COc1cc(OC)cc(N2C=C(C#N)S(=O)(=O)c3ccccc32)c1 readout="RP-LC retention time" unitsymbol=s valuemeasured=910
compound="CCN1C(=O)c2c(C(=O)NCCc3cccc(C)c3)ncn2CC1(C)C(=O)NC1CCCC1 (configuration not stated)" readout="RP-LC retention time" unitsymbol=s valuemeasured=819
compound=O=C(N[C@@H]1CN(c2ncccn2)C[C@H]1CO)c1ccc2c(c1)OCO2 readout="RP-LC retention time" unitsymbol=s valuemeasured=606
compound="O=C(NC1CCN(c2cc(-c3cccs3)[nH]n2)C1)c1ccc(Br)cc1 (configuration not stated)" readout="RP-LC retention time" unitsymbol=s valuemeasured=782
compound="CCOc1ccc(S(=O)(=O)N2CCCC(C(=O)Nc3ccc(S(N)(=O)=O)cc3)C2)cc1C (configuration not stated)" readout="RP-LC retention time" unitsymbol=s valuemeasured=876
compound="COC(=O)c1ccc(NC(=O)Cn2nc3nc(N4CCCCC4C)ccn3c2=O)cc1 (configuration not stated)" readout="RP-LC retention time" unitsymbol=s valuemeasured=778
compound=CCOC(=O)c1cccc(Nc2c(-c3ccc(C(=O)O)cc3)nc3cnccn23)c1 readout="RP-LC retention time" unitsymbol=s valuemeasured=726
compound="COc1ccccc1CCc1nc(C2CC(=O)N(c3ccc(F)c(Cl)c3)C2)no1 (configuration not stated)" readout="RP-LC retention time" unitsymbol=s valuemeasured=1110
compound=O=C(C1=NN(Cc2ccccc2)c2ccc(Cl)cc2S1(=O)=O)N1CCOCC1 readout="RP-LC retention time" unitsymbol=s valuemeasured=824
compound=CCCNC(=O)N(C1CCOCC1)C1CCN(C(=O)c2cnccn2)CC1 readout="RP-LC retention time" unitsymbol=s valuemeasured=611
compound=COc1ccccc1-c1cc(C(=O)N2CCCN(c3ccc(=O)n(-c4ccccc4)n3)CC2)[nH]n1 readout="RP-LC retention time" unitsymbol=s valuemeasured=750
compound=CCN1CCn2cc(S(=O)(=O)Nc3cccc(OC)c3)cc2C1=O readout="RP-LC retention time" unitsymbol=s valuemeasured=700
compound=CCOc1ccc(-c2ccc(=O)n(Cc3nc(-c4ccc(F)cc4)no3)n2)cc1 readout="RP-LC retention time" unitsymbol=s valuemeasured=1090
compound=O=c1ccc(N2CCCN(S(=O)(=O)c3ccccc3F)CC2)nn1-c1ccccc1 readout="RP-LC retention time" unitsymbol=s valuemeasured=820
compound=CCCCN(C)S(=O)(=O)c1ccccc1-c1nc(-c2ccc(F)cc2)no1 readout="RP-LC retention time" unitsymbol=s valuemeasured=1110
compound=COc1ccccc1CNC(=O)c1cn2cc(C)ccc2n1 readout="RP-LC retention time" unitsymbol=s valuemeasured=681
compound=CCOc1ccc(NC(=O)Cc2c(C)nn(-c3nc(-c4ccc(Cl)cc4)cs3)c2C)cc1 readout="RP-LC retention time" unitsymbol=s valuemeasured=1260
compound=CCNC(=O)C1CCN(C(=O)Nc2ccc(NC(=O)Nc3ccccc3)cc2)CC1 readout="RP-LC retention time" unitsymbol=s valuemeasured=658
compound=CCc1ccc(Nc2nc(C(=O)N3CCCCCC3)nc3ccccc23)cc1 readout="RP-LC retention time" unitsymbol=s valuemeasured=910
compound=CCOc1ccccc1C(=O)n1nc(C)c(S(=O)(=O)N2CCCC2)c1C readout="RP-LC retention time" unitsymbol=s valuemeasured=1040
compound="Cc1noc(COC2CCCN(C(=O)c3ccc(Cl)s3)C2)n1 (configuration not stated)" readout="RP-LC retention time" unitsymbol=s valuemeasured=801
compound=Cc1nc(CNS(=O)(=O)c2cc([N+](=O)[O-])ccc2C)cs1 readout="RP-LC retention time" unitsymbol=s valuemeasured=716
compound="Cc1ccc(S(=O)(=O)N2C(=O)CCC2C(=O)NC2CCCCCCC2)cc1 (configuration not stated)" readout="RP-LC retention time" unitsymbol=s valuemeasured=1010
compound=COc1ccc(S(=O)(=O)N2CCC(C(=O)Nc3ncnc4c3CCC4)CC2)cc1 readout="RP-LC retention time" unitsymbol=s valuemeasured=664
compound=COc1ccc(S(=O)(=O)N2CC=C(c3cn(C(C)C)c4ncccc34)CC2)cc1 readout="RP-LC retention time" unitsymbol=s valuemeasured=1070
compound="CCC1Oc2ccc(S(=O)(=O)N3CCC(C(=O)NCc4ccc(Cl)cc4)CC3)cc2NC1=O (configuration not stated)" readout="RP-LC retention time" unitsymbol=s valuemeasured=887
compound=CCOC(=O)c1c(C)[nH]c(CCC(=O)Nc2ccc(F)cc2F)c1C readout="RP-LC retention time" unitsymbol=s valuemeasured=905
compound=Nc1nc(OCc2ccccc2)c2[nH]cnc2n1 readout="RP-LC retention time" unitsymbol=s valuemeasured=654
compound=CC(C)c1noc(-c2cc(=O)n(CC(=O)Nc3ccccc3)c3ccccc23)n1 readout="RP-LC retention time" unitsymbol=s valuemeasured=972
